Test: Log P by HPLC on reversed phase, method [a], acidic range (0.1% formic acid)
Format: physicochemical
Particulars: LC-UV, 0.1% formic acid in water and acetonitrile
Assay endpoint: LogP

Examples with their reported LogP follow.
>>> recorded_value("Cc1cnc(C(F)F)c(C(=O)Nc2cnn(-c3cccc(Cl)c3)c2C(F)(F)F)c1")
"3.25^[a]"
>>> recorded_value("O=C(Nc1cnn(-c2cccc(Cl)c2)c1C(F)(F)F)c1ccc(Cl)nc1C(F)F")
"3.62^[a]"

--- query ---
Exercise: What does the data say about its LogP? Entry: O=C(Nc1cnn(-c2cc(Cl)cc(Cl)c2)c1Br)c1cccnc1C(F)F
Solution: 3.23^[a]

###

Test: Log P by HPLC on reversed phase, method [a], acidic range (0.1% formic acid)
Format: physicochemical
Particulars: LC-UV, 0.1% formic acid in water and acetonitrile
Assay endpoint: LogP

>>> recorded_value("Cc1c(NC(=O)c2cccnc2C(F)F)cnn1-c1ccccc1F")
"1.71^[a];"
>>> recorded_value("O=C(Nc1cnn(-c2ccc(Cl)cc2Cl)c1C(F)(F)F)c1cccnc1C(F)F")
"3.27^[a]"

--- query ---
Exercise: What does the data say about its LogP? Entry: COc1c(NC(=O)c2cccnc2C(F)F)cnn1-c1cc(Cl)cc(Cl)c1
Solution: 3.02^[a]

###

Test: Log P by HPLC on reversed phase, method [a], acidic range (0.1% formic acid)
Assay type: physicochemical
Particulars: LC-UV, 0.1% formic acid in water and acetonitrile
Assay endpoint: LogP

Examples with their reported LogP follow.
>>> recorded_value("Cc1c(NC(=O)c2cccnc2C(F)F)cnn1-c1ccccc1 [Example 12]")
"1.78^[a]"
>>> recorded_value("O=C(Nc1cnn(-c2ccc(Br)cc2)c1Cl)c1cccnc1C(F)F [Example 151]")
"3.47^[a]"
>>> recorded_value("O=C(Nc1cnn(-c2ccc(Cl)cc2)c1OCC(F)F)c1cccnc1C(F)F [Example 222]")
"2.60^[a]"
>>> recorded_value("Cc1cnc(C(F)F)c(C(=O)Nc2cnn(Cc3ccccc3)c2C(F)(F)F)c1 [Example 170]")
"2.95^[a]"
>>> recorded_value("Cc1cnc(C(F)F)c(C(=O)Nc2cnn(-c3ccccc3)c2C(F)(F)F)c1 [Example 4]")
"2.44^[a]"

Exercise: What does the data say about its LogP? Entry: O=C(Nc1cnn(-c2ccccc2Cl)c1-c1cccc(F)c1)c1cccnc1C(F)F [Example 82]
Solution: 2.66^[a]

Exercise: What does the data say about its LogP? Entry: O=C(Nc1cnn(-c2cc(F)cc(F)c2)c1C(F)(F)F)c1cccnc1C(F)F [Example 61]
Solution: 2.88^[a]

Exercise: What does the data say about its LogP? Entry: Cc1cccc(-n2ncc(NC(=O)c3cccnc3C(F)F)c2C(F)(F)F)c1 [Example 86]
Solution: 2.73^[a]

Exercise: What does the data say about its LogP? Entry: Cc1cnc(C(F)F)c(C(=O)Nc2cnn(-c3cccc(Cl)c3)c2C(C)C)c1 [Example 210]
Solution: 2.84^[a]

Exercise: What does the data say about its LogP? Entry: O=C(Nc1cnn(-c2ccc(Cl)c(Cl)c2)c1C(F)(F)F)c1cccnc1C(F)F [Example 96]
Solution: 3.51^[a]

Exercise: What does the data say about its LogP? Entry: Cc1nn(-c2ccccc2)c(C)c1NC(=O)c1cccnc1C(F)(F)F [Example 18]
Solution: 2.07^[a]

Exercise: What does the data say about its LogP? Entry: O=C(Nc1cnn(-c2ccccc2Cl)c1-c1cccc(Cl)c1)c1cccnc1C(F)F [Example 81]
Solution: 2.88^[a]

Exercise: What does the data say about its LogP? Entry: COc1cnc(C(F)F)c(C(=O)Nc2cnn(-c3ccc(Cl)c(Cl)c3)c2C(F)(F)F)c1 [Example 136]
Solution: 3.76^[a]

Exercise: What does the data say about its LogP? Entry: CC(C)c1cccc(-n2ncc(NC(=O)c3cccnc3C(F)F)c2C(F)(F)F)c1 [Example 3]
Solution: 3.51^[a]

Ref: patent US10039283B2
